molecular target: PCP1 sites (Rattus norvegicus, UniProt P35439); construct: membrane preparations originating from anterior cerebrum homogenates of rats; from tissue; host or cells: rat anterior cerebrum (forebrain/cortex) membranes; assay: [3H]TCP displacement, cortex membranes, 1-site model; format: binding; settings: Hill number of the cortex displacement curve
# reported cortex 1 site nH; entries follow

Reference set (2 entries):
CC1CCCN(C2(c3cccs3)CCSCC2)C1 (racemic) :: 1.14
c1ccc2oc(C3(N4CCCCC4)CCSCC3)cc2c1 :: 0.9

input: Give me measured cortex 1 site nH, please, for this molecule: `C[C@@H]1CCCN(C2(c3cccs3)CCSCC2)C1`
output: 0.84

input: Give me measured cortex 1 site nH, please, for this molecule: CC1CSCCC1(c1cccs1)N1CCCCC1 (single isomer, unassigned) [Ex 1 (majority)]
output: 0.94

input: Give me measured cortex 1 site nH, please, for this molecule: `c1coc(C2(N3CCCCC3)CCCCC2)c1`
output: 0.83

input: Give me measured cortex 1 site nH, please, for this molecule: `Cc1csc(C2(N3CCCCC3)CCSCC2)c1`
output: 0.93

input: Give me measured cortex 1 site nH, please, for this molecule: `CCNC1(c2cccs2)CCCCC1`
output: 0.77

input: Give me measured cortex 1 site nH, please, for this molecule: CC1CCCN(C2(c3cccs3)CCCCC2)C1 (racemic) [Ex 22 (±)]
output: 1.09

input: Give me measured cortex 1 site nH, please, for this molecule: `C[C@H]1CCCN(C2(c3cc4ccccc4s3)CCSCC2)C1`
output: 0.73

input: Give me measured cortex 1 site nH, please, for this molecule: c1csc(C2(N3CCCCC3)CCCSC2)c1 (stereo not drawn)
output: 1.00

input: Give me measured cortex 1 site nH, please, for this molecule: OCC1CCCN(C2(c3cccs3)CCCCC2)C1 (stereo not drawn)
output: 0.96

----------
target: PCP2 sites; experiment: [3H]TCP displacement, cerebellum membranes, 2-site model, PCP2; assay type: binding; settings: [3H]TCP 2.5 nM, rat cerebellum, two-site non-linear regression
# reported IC50; entries follow

Reference set (2 entries):
c1csc(C2(N3CCCCC3)CCSCC2)c1 :: 586 nM
C[C@@H]1CCCN(C2(c3cccs3)CCSCC2)C1 :: 53.2 nM

input: Give me measured IC50, please, for this compound: CC1CCCN(C2(c3cccs3)CCSCC2)C1 (racemic)
output: 265 nM

input: Give me measured IC50, please, for this compound: c1csc(C2(N3CCCCC3)CCCCC2)c1 [TCP, N-(1-(2-thienyl)cyclohexyl)piperidine, reference compound]
output: 59 nM

input: Give me measured IC50, please, for this compound: `c1coc(C2(N3CCCCC3)CCSCC2)c1`
output: 1020 nM

input: Give me measured IC50, please, for this compound: `c1csc(C2(N3CCCCC3)CCOCC2)c1`
output: 5840 nM

input: Give me measured IC50, please, for this compound: `Cc1ccc(C2(N3CCCCC3)CCSCC2)s1`
output: 532 nM

----------
molecular target: PCP2 sites; assay: [3H]TCP displacement, cerebellum membranes, 2-site model, PCP2; assay type: binding; settings: [3H]TCP 2.5 nM, rat cerebellum; bound in μM
measured parameter: IC50

C[C@@H]1CCCN(C2(c3cc4ccccc4s3)CCSCC2)C1 :: > 100 µM

In the following, a different compound is considered.
input: Give me measured IC50, please, for this compound: CC1CCCN(C2(c3cc4ccccc4s3)CCSCC2)C1 (racemic)
output: > 100 µM

----------
target: PCP3 sites; test: [3H]TCP displacement, cerebellum membranes, 2-site model, PCP3; assay type: binding; conditions: [3H]TCP 2.5 nM, rat cerebellum, two-site non-linear regression
pIC50: −log10 of the molar value.
# binning rule on pIC50: bin 0 (below 6), bin 1 (6 to below 8), bin 2 (8 or more)

Examples with answers:
CC1CCCN(C2(c3cccs3)CCSCC2)C1 (racemic) [Ex 2] :: bin 0
Cc1csc(C2(N3CCCCC3)CCSCC2)c1 [Ex 12] :: bin 2

input: Hi, small favor: classify c1coc(C2(N3CCCCC3)CCCCC2)c1 [Ex 18] by its pIC50 when you get a moment.
output: bin 2

input: Hi, small favor: classify CC1CCCN(C2(c3cc4ccccc4s3)CCSCC2)C1 (racemic) [Ex 5] by its pIC50 when you get a moment.
output: bin 1

input: Hi, small favor: classify C[C@H]1CCCN(C2(c3cc4ccccc4s3)CCSCC2)C1 [Ex 7] by its pIC50 when you get a moment.
output: bin 1

input: Hi, small favor: classify C[C@@H]1CCCN(C2(c3cccs3)CCSCC2)C1 [Ex 4] by its pIC50 when you get a moment.
output: bin 0

input: Hi, small favor: classify c1csc(C2(N3CCCCC3)CCOCC2)c1 [Ex 20] by its pIC50 when you get a moment.
output: bin 1

input: Hi, small favor: classify c1ccc2oc(C3(N4CCCCC4)CCSCC3)cc2c1 [Ex 10] by its pIC50 when you get a moment.
output: bin 1

input: Hi, small favor: classify CC1CSCCC1(c1cccs1)N1CCCCC1 (single isomer, unassigned) [Ex 1 (minority)] by its pIC50 when you get a moment.
output: bin 1

input: Hi, small favor: classify CCNC1(c2cccs2)CCCCC1 [Ex 17, N-ethyl-1-(2-thienyl)-cyclohexylamine] by its pIC50 when you get a moment.
output: bin 0

input: Hi, small favor: classify C[C@@H]1CCCN(C2(c3cc4ccccc4s3)CCSCC2)C1 [Ex 6] by its pIC50 when you get a moment.
output: bin 1

input: Hi, small favor: classify c1csc(C2(N3CCCCC3)CCCCC2)c1 [TCP, N-(1-(2-thienyl)cyclohexyl)piperidine, reference compound] by its pIC50 when you get a moment.
output: bin 0

----------
# reported IC50; entries follow
target: PCP1 sites (Rattus norvegicus); construct: membrane preparations originating from anterior cerebrum homogenates of rats; from tissue; host or cells: rat anterior cerebrum (forebrain/cortex) membranes; test: [3H]TCP displacement, cortex membranes, 1-site model; type: binding; settings: cortex 1 site IC50, [3H]TCP 1 nM, rat cortex membranes; bound in μM

C[C@@H]1CCCN(C2(c3cc4ccccc4s3)CCSCC2)C1 :: > 100 µM

In the following, a different compound is considered.
input: Give me measured IC50, please, for this compound: CC1CCCN(C2(c3cc4ccccc4s3)CCSCC2)C1 (racemic)
output: > 100 µM

----------
target: PCP2 sites; assay: [3H]TCP displacement, cerebellum membranes, 2-site model, PCP2; format: binding; settings: [3H]TCP 2.5 nM, rat cerebellum, two-site non-linear regression
measured parameter: pIC50
Notebook: values listed as pIC50 are -log10 of the concentration (mol/L).

Reference set (2 entries):
c1csc(C2(N3CCCCC3)CCCSC2)c1 (stereo not shown) :: 6.18
CC1CCCN(C2(c3cccs3)CCCCC2)C1 (racemic) [Ex 22 (±)] :: 7.33

input: Answer briefly: pIC50 recorded on PCP2 sites for `c1coc(C2(N3CCCCC3)CCCCC2)c1`
output: 6.73

input: Answer briefly: pIC50 recorded on PCP2 sites for `C[C@H]1CCCN(C2(c3cc4ccccc4s3)CCSCC2)C1`
output: 4.08

input: Answer briefly: pIC50 recorded on PCP2 sites for OCC1CCCN(C2(c3cccs3)CCCCC2)C1 (stereo not shown)
output: 5.65

input: Answer briefly: pIC50 recorded on PCP2 sites for `Cc1csc(C2(N3CCCCC3)CCSCC2)c1`
output: 6.11

input: Answer briefly: pIC50 recorded on PCP2 sites for `CCNC1(c2cccs2)CCCCC1`
output: 7.26

input: Answer briefly: pIC50 recorded on PCP2 sites for `c1ccc2oc(C3(N4CCCCC4)CCSCC3)cc2c1`
output: 4.57

input: Answer briefly: pIC50 recorded on PCP2 sites for CC1CCCN(C2(c3cccs3)CCCCC2)C1 (single isomer, unassigned) [Ex 22 (+)]
output: 7.55

input: Answer briefly: pIC50 recorded on PCP2 sites for CC1CSCCC1(c1cccs1)N1CCCCC1 (single isomer, unassigned)
output: 5.87

----------
target: PCP1 sites (Rattus norvegicus); construct: membrane preparations originating from anterior cerebrum homogenates of rats; from tissue; host or cells: rat anterior cerebrum (forebrain/cortex) membranes; assay: [3H]TCP displacement, cortex membranes, 1-site model; type: binding; details: [3H]TCP 1 nM, rat cortex (anterior cerebrum) membranes; read-out: cortex 1 site IC50
measured parameter: IC50
Reply with a number, then the unit it belongs to.

c1csc(C2(N3CCCCC3)CCCSC2)c1 (centres unmarked) [Ex 21] :: 73.4 nM

input: Give me measured IC50, please, for this molecule: c1csc(C2(N3CCCCC3)CCSCC2)c1 [Ex 19]
output: 71.6 nM

input: Give me measured IC50, please, for this molecule: c1coc(C2(N3CCCCC3)CCSCC2)c1 [Ex 9]
output: 133 nM

input: Give me measured IC50, please, for this molecule: Cc1csc(C2(N3CCCCC3)CCSCC2)c1 [Ex 12]
output: 77.8 nM

input: Give me measured IC50, please, for this molecule: CC1CCCN(C2(c3cccs3)CCSCC2)C1 (racemic) [Ex 2]
output: 132 nM
